B1: library; numbered along this chain (parent)
chain: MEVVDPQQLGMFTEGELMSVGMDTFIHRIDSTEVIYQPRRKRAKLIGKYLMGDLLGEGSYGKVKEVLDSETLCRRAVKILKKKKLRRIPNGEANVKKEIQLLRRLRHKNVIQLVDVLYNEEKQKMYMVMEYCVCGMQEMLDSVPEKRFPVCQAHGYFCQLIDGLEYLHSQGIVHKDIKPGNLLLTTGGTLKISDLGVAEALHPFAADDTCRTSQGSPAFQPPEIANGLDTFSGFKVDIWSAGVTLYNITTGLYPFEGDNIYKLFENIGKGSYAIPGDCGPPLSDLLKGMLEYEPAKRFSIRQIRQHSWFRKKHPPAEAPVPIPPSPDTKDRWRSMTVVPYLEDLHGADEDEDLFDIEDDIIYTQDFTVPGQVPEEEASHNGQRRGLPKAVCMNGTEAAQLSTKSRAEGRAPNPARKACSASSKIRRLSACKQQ

# Variants of: B1
# PROTOCOL DESCRIPTION: STK11 functional score (HeLa growth suppression), rescaled enrichment; synonymous median = 1, nonsense median = 0 (normalised score)
# ASSAY SETUP: with HeLa; variant type: missense
PARAMETER MEASURED: STK11 functional score
Would you mind answering with just the numeric figure?

> print(dat)
   variant.name      parameter.measured  endpoint.value
1         V337N  STK11 functional score            1.54
2         G215T  STK11 functional score            1.19
3         I322S  STK11 functional score            1.21
4         K403C  STK11 functional score           0.656
5         A397R  STK11 functional score            1.46

State the recorded STK11 functional score for this entry: "S142L"
1.16

And for "R310Y" ?
1.53

How about "E33C" ?
1.11
